Data provenance is patent US4603217A.

# Tested on: ultraviolet erythema
# measurement-notes: inhibition action for ultraviolet erythema
# Format: in vivo, male Hartley guinea pigs
# Set-up: unit not given here
# conditions-used: 3 mg/kg orally, 2 hs after irradiation, guinea pigs
observation-type: 2 hs after the irradiation, Rate for inhibition
When you answer, write just the number.

| molecule | data-value |
| --- | --- |
| C/C=C/C(=O)OCOC(=O)Cc1c(C)n(C(=O)c2ccc(Cl)cc2)c2ccc(OC)cc12 | 43.8 |
| COc1ccc2c(c1)c(CC(=O)O)c(C)n2C(=O)c1ccc(Cl)cc1 [IM, indomethacin, reference compound] | 18.7 |
| COc1ccc2c(c1)c(CC(=O)OCCOC(C)=O)c(C)n2C(=O)c1ccc(Cl)cc1 | 81.3 |

Reported 2 hs after the irradiation, Rate for inhibition of CC=CC=CC(=O)OCOC(=O)Cc1ccccc1Nc1c(Cl)cccc1Cl : 56.2

Note to self: 2 hs after the irradiation, Rate for inhibition recorded for CC=CC=CC(=O)OC(C)OC(=O)Cc1ccccc1Nc1c(Cl)cccc1Cl (stereo not shown) was 50.2

Recorded result, O=C(O)Cc1ccccc1Nc1c(Cl)cccc1Cl [DF, diclofenac, reference compound] , 2 hs after the irradiation, Rate for inhibition: 56.2

2 hs after the irradiation, Rate for inhibition in this record for COc1ccc2c(c1)c(CC(=O)OCOC(=O)C=C(C)C)c(C)n2C(=O)c1ccc(Cl)cc1 : 31.5
